All figures here come from patent US20220235006A1.

log10 EC50 values for the compounds below.
# targetOrTestSystem: human TMEM16A (TMEM16Aabc variant) (Homo sapiens, UniProt Q5XXA6, DEL476-501)
# Sequence (Q5XXA6 with tags, fused parts or gaps isoform Q5XXA6-5 DEL539-564): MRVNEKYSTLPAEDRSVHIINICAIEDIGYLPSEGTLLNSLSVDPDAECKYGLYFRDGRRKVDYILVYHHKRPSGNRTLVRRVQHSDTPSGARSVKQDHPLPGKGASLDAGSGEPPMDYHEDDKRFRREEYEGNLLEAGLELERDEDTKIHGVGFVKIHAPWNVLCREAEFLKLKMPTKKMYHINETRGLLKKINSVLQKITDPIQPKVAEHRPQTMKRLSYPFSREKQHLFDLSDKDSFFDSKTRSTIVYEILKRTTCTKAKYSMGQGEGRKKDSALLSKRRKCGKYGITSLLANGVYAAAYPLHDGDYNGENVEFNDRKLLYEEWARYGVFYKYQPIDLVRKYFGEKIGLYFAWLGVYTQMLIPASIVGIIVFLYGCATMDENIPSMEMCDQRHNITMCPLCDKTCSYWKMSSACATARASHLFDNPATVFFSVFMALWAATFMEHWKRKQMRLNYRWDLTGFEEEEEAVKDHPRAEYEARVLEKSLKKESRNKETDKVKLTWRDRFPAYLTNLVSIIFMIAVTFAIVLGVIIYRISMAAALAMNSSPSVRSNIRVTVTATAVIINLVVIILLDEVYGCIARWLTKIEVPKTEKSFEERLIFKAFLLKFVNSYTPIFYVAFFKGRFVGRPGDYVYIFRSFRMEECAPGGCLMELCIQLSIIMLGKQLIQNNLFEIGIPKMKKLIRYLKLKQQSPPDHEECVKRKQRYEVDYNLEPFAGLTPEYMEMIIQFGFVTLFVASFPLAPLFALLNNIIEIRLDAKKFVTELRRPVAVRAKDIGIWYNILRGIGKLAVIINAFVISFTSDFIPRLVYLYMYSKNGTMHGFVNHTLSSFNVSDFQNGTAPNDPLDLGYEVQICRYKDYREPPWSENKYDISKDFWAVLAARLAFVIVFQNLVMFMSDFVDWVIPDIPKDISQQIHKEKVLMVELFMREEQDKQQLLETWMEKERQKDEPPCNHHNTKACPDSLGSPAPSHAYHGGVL
# runDescription: Automated whole-cell patch clamp (Qpatch) TMEM16A potentiator assay in recombinant FRT cells
# conditionNotes: minimum n = 2
Recall that a logarithmic scale is used here: each number is log10 of EC50 in nM.

Solved cases (2 shown):
CC(C)(C#N)NC(=O)c1cc(NC(=O)Cc2cc(O)c(C(C)(C)O)cc2F)ccn1 [Example 2.1]	2.67
CC(C)(CO)c1cc(Cl)c(CC(=O)Nc2ccnc(C(=O)NC3(C(F)(F)F)CC3)c2)cc1O [Example 14]	1.52

Hi! What's the reported log10 EC50 for CC(C)(C)c1cc(F)c(CC(=O)Nc2ccnc(C(=O)NC3(C(F)(F)F)CC3)c2)cc1O [Example 1.7] on human TMEM16A (TMEM16Aabc variant) (Homo sapiens, UniProt Q5XXA6, DEL476-501)?
1.40

Hi! What's the reported log10 EC50 for CC1(NC(=O)c2cc(NC(=O)Cc3cc(O)c(C(C)(C)CO)cc3F)ccn2)CC(F)(F)C1 [Example 15] on human TMEM16A (TMEM16Aabc variant) (Homo sapiens, UniProt Q5XXA6, DEL476-501)?
1.15

Hi! What's the reported log10 EC50 for CCC(C)(O)c1cc(F)c(CC(=O)Nc2ccnc(C(=O)NC3(C(F)(F)F)CC3)c2)cc1O (stereo not shown) [Example 2.11] on human TMEM16A (TMEM16Aabc variant) (Homo sapiens, UniProt Q5XXA6, DEL476-501)?
1.81

Hi! What's the reported log10 EC50 for C#CC1(NC(=O)c2cc(NC(=O)Cc3cc(O)c(C(C)(C)C)cc3F)ccn2)CCCC1 [Example 1.2] on human TMEM16A (TMEM16Aabc variant) (Homo sapiens, UniProt Q5XXA6, DEL476-501)?
1.65

Hi! What's the reported log10 EC50 for CC(C)(C#N)NC(=O)c1cc(NC(=O)Cc2cc(O)c(C(C)(C)C)cc2F)ccn1 [Example 1.4] on human TMEM16A (TMEM16Aabc variant) (Homo sapiens, UniProt Q5XXA6, DEL476-501)?
1.57

Hi! What's the reported log10 EC50 for C=C(C)c1cc(F)c(CC(=O)Nc2ccnc(C(=O)NC3(C(F)(F)F)CC3)c2)cc1O [Example 7.1] on human TMEM16A (TMEM16Aabc variant) (Homo sapiens, UniProt Q5XXA6, DEL476-501)?
1.18

---

activation at 3.33 µM values for the compounds below.
# targetOrTestSystem: human TMEM16A (TMEM16Aabc variant) (Homo sapiens, UniProt Q5XXA6, DEL476-501)
# runDescription: Automated whole-cell patch clamp (Qpatch) TMEM16A potentiator assay in recombinant FRT cells
# Format: cell-based
# conditionNotes: 3.33 uM, percentage increase of baseline TMEM16A current, minimum n = 2, read-out: % Potentiation @ 3.33 uM Avg
Express the result in % but write the number alone.

Solved cases (4 shown):
CC(C)(C#N)NC(=O)c1cc(NC(=O)Cc2cc(O)c(C(C)(C)O)cc2F)ccn1 [Example 2.1]	350
Cc1cc(C(C)(C)CO)c(O)cc1CC(=O)Nc1ccnc(C(=O)NC2(C(F)(F)F)CC2)c1 [Example 14.1]	233
CC(C)(CO)c1cc(F)c(CC(=O)Nc2ccnc(C(=O)NC3(C(F)(F)F)CC3)c2)cc1O [Example 2.6]	270
CC(C)(C)c1cc(Cl)c(CC(=O)Nc2ccnc(C(=O)NC3(C#N)CC3)c2)cc1O [Example 10.2]	252

I have this compound here, CC(C)(C)NC(=O)c1cc(NC(=O)Cc2cc(O)c(C3(C#N)CC3)cc2F)ccn1 [Example 2.4] , and I need its recorded activation at 3.33 µM.
356

I have this compound here, C#CC(C)(C)NC(=O)c1cc(NC(=O)Cc2cc(O)c(C(C)(C)C)cc2F)ccn1 [Example 1.1] , and I need its recorded activation at 3.33 µM.
118

I have this compound here, Cc1cc(C(C)(C)O)c(O)cc1CC(=O)Nc1ccnc(C(=O)NC2(C(F)(F)F)CC2)c1 [Example 2.12] , and I need its recorded activation at 3.33 µM.
209

I have this compound here, N#CC1(c2cc(F)c(CC(=O)Nc3ccnc(C(=O)NC4(C(F)(F)F)CC4)c3)cc2O)CCOCC1 [Example 2.9] , and I need its recorded activation at 3.33 µM.
295

I have this compound here, CC(C)(C)NC(=O)c1cc(NC(=O)Cc2cc(O)c(C(C)(C)O)cc2F)ccn1 [Example 7] , and I need its recorded activation at 3.33 µM.
83.6

I have this compound here, CC(C)(CO)c1cc(Cl)c(CC(=O)Nc2ccnc(C(=O)NC3(C(F)F)CC3)c2)cc1O [Example 15.3] , and I need its recorded activation at 3.33 µM.
250

I have this compound here, CC(C)(C#N)NC(=O)c1cc(NC(=O)Cc2cc(O)c(C(C)(C)CO)cc2F)ccn1 [Example 16.2] , and I need its recorded activation at 3.33 µM.
295

I have this compound here, CC(C)(C#N)NC(=O)c1cc(NC(=O)Cc2cc(O)c(C(C)(C)CN3CCOCC3)cc2F)ccn1 [Example 2.5] , and I need its recorded activation at 3.33 µM.
112

I have this compound here, CC(C)(C#N)c1cc(F)c(CC(=O)Nc2ccnc(C(=O)NC3(C(F)(F)F)CC3)c2)cc1O [Example 2.3] , and I need its recorded activation at 3.33 µM.
72.1

I have this compound here, CC(C)(C#N)NC(=O)c1cc(NC(=O)Cc2cc(O)c(C3(C)CCC3)cc2F)ccn1 [Example 5] , and I need its recorded activation at 3.33 µM.
335

I have this compound here, CC(C)(CCO)c1cc(F)c(CC(=O)Nc2ccnc(C(=O)NC3(C(F)(F)F)CC3)c2)cc1O [Example 11] , and I need its recorded activation at 3.33 µM.
208

I have this compound here, CC(C)(C#N)NC(=O)c1cc(NC(=O)Cc2cc(O)c(C(C)(C)C)cc2Cl)ccn1 [Example 10] , and I need its recorded activation at 3.33 µM.
310

---

activation at 3.33 µM values for the compounds below.
# targetOrTestSystem: human TMEM16A (TMEM16Aabc variant) (Homo sapiens, UniProt Q5XXA6, DEL476-501)
# Sequence (Q5XXA6 with tags, fused parts or gaps isoform Q5XXA6-5 DEL539-564): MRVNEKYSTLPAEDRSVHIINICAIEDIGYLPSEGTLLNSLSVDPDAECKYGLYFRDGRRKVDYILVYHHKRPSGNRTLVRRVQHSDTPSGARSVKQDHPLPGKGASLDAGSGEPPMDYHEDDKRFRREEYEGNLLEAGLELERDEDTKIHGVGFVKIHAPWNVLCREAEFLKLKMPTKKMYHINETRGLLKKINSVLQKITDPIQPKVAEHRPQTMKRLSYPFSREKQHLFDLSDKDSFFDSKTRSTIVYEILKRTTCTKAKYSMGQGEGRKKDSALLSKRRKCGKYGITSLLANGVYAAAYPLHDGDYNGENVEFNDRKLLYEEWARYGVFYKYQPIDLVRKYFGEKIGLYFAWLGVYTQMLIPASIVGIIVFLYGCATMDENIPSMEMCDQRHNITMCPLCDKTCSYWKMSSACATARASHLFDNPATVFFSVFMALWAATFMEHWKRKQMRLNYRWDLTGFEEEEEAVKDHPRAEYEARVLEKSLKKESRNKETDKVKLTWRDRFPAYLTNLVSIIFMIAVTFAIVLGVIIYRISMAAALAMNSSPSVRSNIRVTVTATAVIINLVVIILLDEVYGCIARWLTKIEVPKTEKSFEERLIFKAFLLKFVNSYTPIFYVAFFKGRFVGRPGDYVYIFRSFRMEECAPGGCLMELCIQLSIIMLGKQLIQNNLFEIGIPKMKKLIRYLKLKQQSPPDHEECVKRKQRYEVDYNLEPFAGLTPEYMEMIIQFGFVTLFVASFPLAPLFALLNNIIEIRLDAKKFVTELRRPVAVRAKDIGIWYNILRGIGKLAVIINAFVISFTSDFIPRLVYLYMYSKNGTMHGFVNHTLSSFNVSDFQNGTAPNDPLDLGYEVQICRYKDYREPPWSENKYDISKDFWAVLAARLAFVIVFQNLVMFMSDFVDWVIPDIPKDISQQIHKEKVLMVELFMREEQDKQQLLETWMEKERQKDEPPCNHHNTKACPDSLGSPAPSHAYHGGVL
# runDescription: Automated whole-cell patch clamp (Qpatch) TMEM16A potentiator assay in recombinant FRT cells
# Format: cell-based
# conditionNotes: 3.33 uM, percentage increase of baseline TMEM16A current, minimum n = 2, read-out: % Potentiation @ 3.33 uM Avg

Solved cases (5 shown):
CC(C)(C#N)NC(=O)c1cc(NC(=O)Cc2cc(O)c(C(C)(O)C(F)(F)F)cc2F)ccn1 (stereo not drawn)	309%
CC(C)(CO)NC(=O)c1cc(NC(=O)Cc2cc(O)c(C(C)(C)CO)cc2F)ccn1	97.2%
CC(C)(CO)c1cc(Cl)c(CC(=O)Nc2ccnc(C(=O)NC3(C(F)(F)F)CC3)c2)cc1O	490%
[2H]c1c(O)c(C(C([2H])([2H])[2H])(C([2H])([2H])[2H])C([2H])([2H])[2H])cc(F)c1CC(=O)Nc1ccnc(C(=O)NC2(C#N)CC2)c1	186%
CC(C)(CO)c1cc(F)c(CC(=O)Nc2ccnc(C(=O)N[C@H]3CCC[C@@H]3O)c2)cc1O	142%

Hi! What's the reported activation at 3.33 µM for O=C(Cc1cc(O)c(C2(O)CCOCC2)cc1F)Nc1ccnc(C(=O)NC2(C(F)(F)F)CC2)c1 on human TMEM16A (TMEM16Aabc variant) (Homo sapiens, UniProt Q5XXA6, DEL476-501)?
196%

Hi! What's the reported activation at 3.33 µM for C#CC(C)(C)NC(=O)c1cc(NC(=O)Cc2cc(O)c(C(C)(C)CO)cc2Cl)ccn1 on human TMEM16A (TMEM16Aabc variant) (Homo sapiens, UniProt Q5XXA6, DEL476-501)?
190%

Hi! What's the reported activation at 3.33 µM for O=C(Cc1cc(O)c(C2(C(F)(F)F)CCO2)cc1F)Nc1ccnc(C(=O)NC2(C(F)(F)F)CC2)c1 (stereo not drawn) on human TMEM16A (TMEM16Aabc variant) (Homo sapiens, UniProt Q5XXA6, DEL476-501)?
434%

Hi! What's the reported activation at 3.33 µM for CC(C)(CO)c1cc(F)c(CC(=O)Nc2ccnc(C(=O)NC3(C(F)(F)F)CC3)c2)c(F)c1O on human TMEM16A (TMEM16Aabc variant) (Homo sapiens, UniProt Q5XXA6, DEL476-501)?
280%

Hi! What's the reported activation at 3.33 µM for N#CC1(NC(=O)c2cc(NC(=O)Cc3cc(O)c(C4(C(F)(F)F)CC4)cc3F)ccn2)CC1 on human TMEM16A (TMEM16Aabc variant) (Homo sapiens, UniProt Q5XXA6, DEL476-501)?
378%

Hi! What's the reported activation at 3.33 µM for CC(C#N)NC(=O)c1cc(NC(=O)Cc2cc(O)c(C(C)(C)C)cc2F)ccn1 (stereo not drawn) on human TMEM16A (TMEM16Aabc variant) (Homo sapiens, UniProt Q5XXA6, DEL476-501)?
380%

Hi! What's the reported activation at 3.33 µM for CC(C)(CO)c1cc(F)c(CC(=O)Nc2ccnc(C(=O)NC3(C#N)CCOCC3)c2)cc1O on human TMEM16A (TMEM16Aabc variant) (Homo sapiens, UniProt Q5XXA6, DEL476-501)?
150%

Hi! What's the reported activation at 3.33 µM for CC(C)(C)c1cc(F)c(CC(=O)Nc2ccnc(C(=O)NC3(C(F)(F)F)CC3)c2)cc1O on human TMEM16A (TMEM16Aabc variant) (Homo sapiens, UniProt Q5XXA6, DEL476-501)?
202%

Hi! What's the reported activation at 3.33 µM for CC(C)(O)c1cc(F)c(CC(=O)Nc2ccnc(C(=O)NC3(C(F)(F)F)CC3)c2)cc1O on human TMEM16A (TMEM16Aabc variant) (Homo sapiens, UniProt Q5XXA6, DEL476-501)?
243%

Hi! What's the reported activation at 3.33 µM for C#CC1(NC(=O)c2cc(NC(=O)Cc3cc(O)c(C(C)(C)C)cc3F)ccn2)CCCC1 on human TMEM16A (TMEM16Aabc variant) (Homo sapiens, UniProt Q5XXA6, DEL476-501)?
149%
